Measured pEC50 values are reported for all entries that follow.
# MEASURED_ON: THR alpha-LBD (Homo sapiens)
# Construct: except that THR alpha-LBD of a final concentration 0.25 nM was used; purchased Invitrogen PV4687
# Sequence (P10827 163-410 isoform P10827-2 limits assumed, other chains not shown): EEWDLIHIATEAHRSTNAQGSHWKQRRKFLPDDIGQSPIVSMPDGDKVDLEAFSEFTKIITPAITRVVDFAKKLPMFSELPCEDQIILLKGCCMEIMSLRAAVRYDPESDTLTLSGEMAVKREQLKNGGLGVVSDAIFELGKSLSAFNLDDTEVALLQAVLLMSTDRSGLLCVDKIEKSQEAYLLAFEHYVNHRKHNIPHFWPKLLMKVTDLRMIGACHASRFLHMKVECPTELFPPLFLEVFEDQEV
# ASSAY_DETAILS: THR-α Coactivator Peptide Recruitment Assay (LanthaScreen TR-FRET)
# Assay type: biochemical
# RUN_PARAMETERS: TR-FRET coactivator recruitment, THR alpha-LBD 0.25 nM; read-out: THRα EC50
pEC50: −log10 of the molar value.

Example entries and their recorded answers appear below.
MOLECULE	RESULT
CNC(=O)C1(N[S@SP3](=O)(=O)c2cc(Oc3c(Cl)cc(-n4nc(C(F)(F)F)c(=O)[nH]c4=O)cc3Cl)ccc2O)CC1 [Compound 25]	< 6.00
CO[C@H]1C[C@H](NS(=O)(=O)c2cc(Oc3c(Cl)cc(-n4nc(C(F)F)c(=O)[nH]c4=O)cc3Cl)ccc2O)C1 [Compound 36]	6.70 to 8.70

Please find the next molecule below.
GET /values?readout=pEC50&system=THR alpha-LBD (Homo sapiens)&item= O=c1[nH]c(=O)n(-c2cc(Cl)c(Oc3cc(S(=O)(=O)NC45CCC(O)(CC4)C5)c(O)cn3)c(Cl)c2)nc1C(F)F [Compound 160]
< 6.00
